System: Vesicular stomatitis virus
Test: Minimum inhibitory concentration required to reduce vesicular stomatitis virus (VSV) induced cytopathogenicity by 50%
Type: functional
REPORTED_METRIC: MIC50

[[record]]
compound = "Nc1ncnc2c(C3OC(CO)CC3O)n[nH]c12 (stereo unspecified)"
reported_metric = "MIC50"
experimental_result = "> 400 µg/mL"

[[record]]
compound = "Nc1ncnc2c1ccn2[C@@H]1O[C@H](CO)[C@H](O)[C@H]1O"
reported_metric = "MIC50"
experimental_result = "> 10 µg/mL"

[[record]]
compound = "NC(=O)c1cn(C2OC(CO)CC2O)c2ncnc(N)c12 (stereo unspecified)"
reported_metric = "MIC50"
experimental_result = "> 10 µg/mL"

[[record]]
compound = "Nc1ncnc2c1ccn2[C@@H]1O[C@H](CO)[C@@H](O)[C@@H]1O"
reported_metric = "MIC50"
experimental_result = "> 400 µg/mL"

[[record]]
compound = "Nc1ncnc2c1ccn2C1OC(CO)CC1O (stereo unspecified)"
reported_metric = "MIC50"
experimental_result = "> 10 µg/mL"

[[record]]
compound = "N#Cc1cn([C@@H]2O[C@H](CO)[C@@H](O)[C@@H]2O)c2ncnc(N)c12"
reported_metric = "MIC50"
experimental_result = "> 10 µg/mL"


###

Tested on: Poliovirus 1
Test: Minimum inhibitory concentration required to reduce Polio virus type 1 induced cytopathogenicity by 50%
Type: functional
Conditions: Enterovirus C
REPORTED_METRIC: MIC50

[[record]]
compound = "Nc1ncnc2c(C3OC(CO)CC3O)n[nH]c12 (stereo unspecified)"
tested_target = "Poliovirus 1"
experimental_result = "> 400 µg/mL"

[[record]]
compound = "N#Cc1cn([C@@H]2O[C@H](CO)[C@@H](O)[C@@H]2O)c2ncnc(N)c12"
tested_target = "Poliovirus 1"
experimental_result = "> 10 µg/mL"

[[record]]
compound = "N#Cc1cn(C2OC(CO)CC2O)c2ncnc(N)c12 (stereo unspecified)"
tested_target = "Poliovirus 1"
experimental_result = "> 1 µg/mL"

[[record]]
compound = "N#Cc1cn([C@@H]2O[C@H](CO)[C@@H](O)[C@H]2O)c2ncnc(N)c12 [TOYOCAMYCIN]"
tested_target = "Poliovirus 1"
experimental_result = "> 0.4 µg/mL"

[[record]]
compound = "Nc1ncnc2c1ccn2[C@@H]1O[C@H](CO)[C@H](O)[C@H]1O"
tested_target = "Poliovirus 1"
experimental_result = "> 4 µg/mL"

[[record]]
compound = "NC(=O)c1cn(C2OC(CO)CC2O)c2ncnc(N)c12 (stereo unspecified)"
tested_target = "Poliovirus 1"
experimental_result = "> 40 µg/mL"

